# Test system: Toxoplasma gondii RH 2F1 tachyzoites (intracellular in HFF)
# Test Method Notes: parasite survival relative to DMSO control; higher = less antiparasitic activity, active = 20 or less
# Experimental Setup: 1 µM; 72 h
Possible outcomes: class 1 for active, class 0 for inactive

[
  {
    "Compound": "COc1ccc(-n2cnc3cc(NCc4ccco4)ccc32)cc1",
    "Class Assignment": "class 0"
  },
  {
    "Compound": "CC(C)(C)NC(=O)[C@@H]1CN(Cc2cnc3occc3c2)CCN1C[C@@H](O)C[C@@H](Cc1ccccc1)C(=O)N[C@H]1c2ccccc2C[C@H]1O",
    "Class Assignment": "class 0"
  },
  {
    "Compound": "CC(C)(C)c1ccc(Oc2ccc(N)cc2)cc1",
    "Class Assignment": "class 0"
  },
  {
    "Compound": "Cc1ccc(C)c(OCCCCCCN2C[C@H](O)[C@@H](O)[C@H](O)[C@H]2CO)c1",
    "Class Assignment": "class 0"
  },
  {
    "Compound": "CO[C@@]1(NC(=O)Cc2cccs2)C(=O)N2C(C(=O)O)=C(COC(N)=O)CS[C@@H]21",
    "Class Assignment": "class 0"
  },
  {
    "Compound": "CC(Cc1ccccc1)C(=O)Nc1ccc(Cl)cc1C(=O)O (configuration not stated)",
    "Class Assignment": "class 0"
  },
  {
    "Compound": "Cc1onc(-c2ccccc2)c1-c1ccc(S(N)(=O)=O)cc1",
    "Class Assignment": "class 0"
  },
  {
    "Compound": "OCCCCn1cnc2c(O)nc(NCc3ccc(Cl)c(Cl)c3)nc21",
    "Class Assignment": "class 0"
  },
  {
    "Compound": "CN(C)CCCOc1ccc(-c2ccc3ncc4c(c3c2)n(C2CCOCC2)c(=O)n4C)cn1",
    "Class Assignment": "class 0"
  },
  {
    "Compound": "CC(=O)NC[C@H]1CN(c2ccc(N3CCSCC3)c(F)c2)C(=O)O1",
    "Class Assignment": "class 0"
  },
  {
    "Compound": "CC[N+]1(C/C2=C/CCCCCC2)CCC(NC(=O)C2c3cc(Cl)ccc3Oc3ccc(Cl)cc32)CC1 (configuration not stated)",
    "Class Assignment": "class 0"
  },
  {
    "Compound": "COc1ccc2c(c1OC)C(=O)OC2C1c2c(cc3c(c2OC)OCO3)CCN1C (configuration not stated)",
    "Class Assignment": "class 0"
  },
  {
    "Compound": "CN1CCN(c2ccc3[nH]c(-c4ccc5[nH]c(-c6ccc(O)cc6)nc5c4)nc3c2)CC1",
    "Class Assignment": "class 0"
  },
  {
    "Compound": "O=C(Nc1cccc(C2=NCCN2)c1)c1ccc(-c2ccc(C(=O)Nc3cccc(C4=NCCN4)c3)cc2)cc1",
    "Class Assignment": "class 0"
  },
  {
    "Compound": "FC(F)(F)Oc1ccc(Nc2ccc3cccc(Cl)c3n2)cc1",
    "Class Assignment": "class 0"
  },
  {
    "Compound": "COc1ccc(COc2cc3oc(=O)c4cc(C(C)O)ccc4c3cc2OC)cc1 (configuration not stated)",
    "Class Assignment": "class 0"
  },
  {
    "Compound": "COc1ccc2nc(-c3ccccc3)cc(O)c2c1",
    "Class Assignment": "class 1"
  },
  {
    "Compound": "CC[C@@]1(O)C(=O)OCc2c1cc1n(c2=O)Cc2cc3c([N+](=O)[O-])cccc3nc2-1",
    "Class Assignment": "class 0"
  },
  {
    "Compound": "Clc1ccc(Cn2c(CN3CCCC3)nc3ccccc32)cc1",
    "Class Assignment": "class 0"
  },
  {
    "Compound": "COc1cc(C(C(=O)NC2CCCCC2)N(C(=O)Cc2c[nH]c3ccccc23)c2ccc(C(C)C)cc2)cc(OC)c1OC (configuration not stated)",
    "Class Assignment": "class 0"
  },
  {
    "Compound": "O=C(NN1C(=O)[C@@H]2[C@@H]3C=C[C@@H]([C@H]4C[C@@H]34)[C@@H]2C1=O)c1ccc(C(F)(F)F)cc1",
    "Class Assignment": "class 0"
  },
  {
    "Compound": "CC[C@@H](CO)NCCN[C@@H](CC)CO",
    "Class Assignment": "class 0"
  }
]
